Origin of values: ChEMBL document CHEMBL4513216

# Protocol Summary: Toxicity liver stage against HepG2, at 10uM
# Type: cell-based
# Parameters: test concentration 10 uM, cell line HepG2-A16-CD81EGFP
# Condition Notes: human, HepG2-A16-CD81EGFP cells; read-out: INHIBITION
Each item that follows carries a reported cytotoxicity at 10 µM.
Answer format: numeric, % implied, no suffix.

Compound: Cc1n[nH]c(C)c1CCNC(=O)C1CCCN(CC(N)=O)C1 (configuration not stated)
Value Units: %
Endpoint Result: -0.653

*Q* May I ask what cytotoxicity at 10 µM has been recorded for Cc1cccc(C(=O)N2CCC(Cc3cnc4[nH]ccc4c3)CC2)n1 ?
*A* 12.2

*Q* May I ask what cytotoxicity at 10 µM has been recorded for CN(C)c1nc(NCCc2ccccn2)ncc1F ?
*A* -4.84

*Q* May I ask what cytotoxicity at 10 µM has been recorded for CC(c1ccccc1)N(C)C(=O)CN1CCCc2cccc(F)c21 (configuration not stated) ?
*A* 22.5

*Q* May I ask what cytotoxicity at 10 µM has been recorded for O=C(CCOc1ccccc1F)N1CCC(O)CC1 ?
*A* -14

*Q* May I ask what cytotoxicity at 10 µM has been recorded for CC(C)N1CCC(CC(=O)N2CCCCC2CCn2cccn2)CC1 (configuration not stated) ?
*A* -3.77

----------
# Protocol Summary: Toxicity liver stage against HepG2, at 10uM
# Type: cell-based
# Design: test concentration 10 uM, cell line HepG2-A16-CD81EGFP
# Condition Notes: human, HepG2-A16-CD81EGFP cells; read-out: INHIBITION
Property: cytotoxicity at 10 µM (%)
Answer format: numeric, % implied, no suffix.

Consider the worked cases shown below.
Compound: CC(C)CCN1CCc2[nH]nc(C(=O)N3CCCC3C)c2C1 (configuration not stated)
cytotoxicity at 10 µM, %: 4.32
--
Compound: CN(Cc1nc(N)nc(N(C)C)n1)Cc1cccc2ccccc12
cytotoxicity at 10 µM, %: 0.554
--
Compound: COCCC1(C(=O)O)CCCN(C(=O)c2cc(F)ccc2OC)C1 (configuration not stated)
cytotoxicity at 10 µM, %: -11.4
--
Compound: CCN(CC)CCCN1CCN(c2nc(C)cnc2C)CC1
cytotoxicity at 10 µM, %: -31
--
Compound: Cc1cc(N2CCC(CO)(CC3CCCCO3)CC2)nc2ccccc12 (configuration not stated)
cytotoxicity at 10 µM, %: 5.51

*Q* May I ask what cytotoxicity at 10 µM has been recorded for CCCNCc1cn(Cc2ccccc2)nc1-c1cccnc1 ?
*A* 5.13

*Q* May I ask what cytotoxicity at 10 µM has been recorded for CC(=O)N1CCN(C(=O)c2cnc(OC(C)C)c(Cl)c2)CC1 ?
*A* -4.36

*Q* May I ask what cytotoxicity at 10 µM has been recorded for O=C1NCCN1CCNc1cc(-c2ccncc2)nc2ccnn12 ?
*A* -4.76

*Q* May I ask what cytotoxicity at 10 µM has been recorded for COc1cccc2ccn(CC(=O)NC(C)C)c12 ?
*A* -37

----------
# Protocol Summary: Toxicity liver stage against HepG2, at 10uM
# Type: cell-based
# Design: test concentration 10 uM, cell line HepG2-A16-CD81EGFP
# Condition Notes: human, HepG2-A16-CD81EGFP cells; read-out: INHIBITION
Each item that follows carries a reported cytotoxicity at 10 µM.
Answer format: numeric, % implied, no suffix.

Compound: O=C(CSc1ccccn1)N1CCC(OCc2cccnc2)CC1
cytotoxicity at 10 µM [%]: -3.84

*Q* May I ask what cytotoxicity at 10 µM has been recorded for CCc1nn(-c2cc(Oc3ccccc3)nc(C)n2)c(N)c1C#N ?
*A* 3.62

*Q* May I ask what cytotoxicity at 10 µM has been recorded for Cc1nc(C2CCCN(c3ncc(Br)cn3)C2)no1 (stereo unspecified) ?
*A* -0.598

*Q* May I ask what cytotoxicity at 10 µM has been recorded for Cc1nc(C)c(C(C)NCc2c(C(C)C)nn(C)c2N(C)C)s1 (stereo unspecified) ?
*A* -8.53

*Q* May I ask what cytotoxicity at 10 µM has been recorded for CC(=O)N1CCN(CCCOc2ccccc2F)CC(C(N)=O)C1 (stereo unspecified) ?
*A* -28.7

*Q* May I ask what cytotoxicity at 10 µM has been recorded for CCOC(=O)N1CC(=O)N(Cc2cccc(OC)c2OC)CC(O)C1 (stereo unspecified) ?
*A* -3.66

*Q* May I ask what cytotoxicity at 10 µM has been recorded for Cc1nn(C)c2ncc(C(=O)N3CCNC(=O)C3)cc12 ?
*A* -6.62

*Q* May I ask what cytotoxicity at 10 µM has been recorded for CN(C)C(=O)CN1CCC2(CCCN(c3ncc(F)cn3)C2)C1=O (stereo unspecified) ?
*A* 9.51

*Q* May I ask what cytotoxicity at 10 µM has been recorded for COc1ccc(OC)c(CN(Cc2ccco2)Cc2[nH]cnc2C)c1 ?
*A* -2.51

*Q* May I ask what cytotoxicity at 10 µM has been recorded for O=C(NC1CCN(C2CC2)CC1)NC1CCOc2ccc(Br)cc21 (stereo unspecified) ?
*A* -3.43

*Q* May I ask what cytotoxicity at 10 µM has been recorded for CCn1nc(CNC(=O)C2CCCN(CC(N)=O)C2)c2ccccc21 (stereo unspecified) ?
*A* -9.65

----------
# Protocol Summary: Toxicity liver stage against HepG2, at 10uM
# Assay type: cell-based
# Parameters: test concentration 10 uM, cell line HepG2-A16-CD81EGFP
# Condition Notes: human, HepG2-A16-CD81EGFP cells; read-out: INHIBITION
Property: cytotoxicity at 10 µM (%)
Answer format: numeric, % implied, no suffix.

Consider the worked cases shown below.
Compound: Cc1cnn(CC2CN(Cc3cccc(C(=O)N(C)C)c3)CCO2)c1 (configuration not stated)
cytotoxicity at 10 µM [%]: -1.73
--
Compound: CC(C)(C)NC(=O)CCOc1cccc(F)c1
cytotoxicity at 10 µM [%]: -4.95
--
Compound: FC(F)(F)CCc1ccnc(NC2CCOC2)n1 (configuration not stated)
cytotoxicity at 10 µM [%]: 16.4

*Q* May I ask what cytotoxicity at 10 µM has been recorded for Cc1ccc(N2CCCC(N(C)Cc3noc(C4CC4)n3)C2)nn1 (configuration not stated) ?
*A* 1.6

*Q* May I ask what cytotoxicity at 10 µM has been recorded for CNC(=O)[C@@H]1C[C@@H](N)CN1Cc1ccc2cccc(OC)c2n1 ?
*A* 0.719

*Q* May I ask what cytotoxicity at 10 µM has been recorded for N#Cc1cccc(S(=O)(=O)NC(=O)CCOCC(F)(F)F)c1 ?
*A* 12.4

*Q* May I ask what cytotoxicity at 10 µM has been recorded for CCC(=O)N1CCC(NC(=O)c2cccc(-n3ccnc3)c2)C1 (configuration not stated) ?
*A* 8.96

*Q* May I ask what cytotoxicity at 10 µM has been recorded for O=C(Cc1ccc(O)cc1)N1CCCC(O)(CN2CCOCC2)CC1 (configuration not stated) ?
*A* -1.45

*Q* May I ask what cytotoxicity at 10 µM has been recorded for CNC(=O)COC1COC2(CCN(c3cnccn3)CC2)C1 (configuration not stated) ?
*A* -8.44

*Q* May I ask what cytotoxicity at 10 µM has been recorded for COCCN1CCC2(CC1)CC(c1ccccc1)C(=O)N2C (configuration not stated) ?
*A* 7.91

*Q* May I ask what cytotoxicity at 10 µM has been recorded for CC(=O)N1CCCC(c2ccc3sc(N)nc3n2)C1 (configuration not stated) ?
*A* 0.248

*Q* May I ask what cytotoxicity at 10 µM has been recorded for COc1ccccc1C1(CNCc2cccc(O)c2)CCOCC1 ?
*A* 9.18

----------
Each item that follows carries a reported cytotoxicity at 10 µM.
# Protocol Summary: Toxicity liver stage against HepG2, at 10uM
# Type: cell-based
# Parameters: test concentration 10 uM, cell line HepG2-A16-CD81EGFP
# Condition Notes: human, HepG2-A16-CD81EGFP cells; read-out: INHIBITION
Answer format: numeric, % implied, no suffix.

Consider the worked cases shown below.
Compound: Cc1nccn1-c1cc(CNC(=O)CCNC(=O)OC(C)(C)C)ccn1
cytotoxicity at 10 µM, %: -1.7
//
Compound: CCc1nc(CN2CCCN(C(=O)c3cncnc3C)CC2)cs1
cytotoxicity at 10 µM, %: -7.95
//
Compound: CC(C)c1nnc(CCC(=O)N2CCOC(c3cnccn3)C2)o1 (centres undefined)
cytotoxicity at 10 µM, %: -2.01
//
Compound: CN(C)c1no[n+]([O-])c1-c1ccccc1
cytotoxicity at 10 µM, %: 15.8
//
Compound: CC(=O)N(c1ccc(F)cc1)c1nc(CN2CCCC2C(C)C)cs1 (centres undefined)
cytotoxicity at 10 µM, %: -12.2
//
Compound: CC(=O)N1CCN(c2ccccc2CNc2ccc3[nH]ncc3c2)CC1
cytotoxicity at 10 µM, %: 9.17
//
Compound: COc1ncccc1NC(=O)N1CCC(C(=O)NC(C)C)CC1
cytotoxicity at 10 µM, %: -3.68
//
Compound: CCN(Cc1cnn(C)c1)S(=O)(=O)N1CCCC1c1ccco1 (centres undefined)
cytotoxicity at 10 µM, %: -3.55
//
Compound: COCCC(Cc1cccc(Br)c1)C(N)=O (centres undefined)
cytotoxicity at 10 µM, %: 8.42
//
Compound: O=C(c1ccncc1F)N1CCc2onc(COc3cccnc3)c2C1
cytotoxicity at 10 µM, %: -70.6

*Q* May I ask what cytotoxicity at 10 µM has been recorded for COc1cc(Cl)ccc1C(=O)N1CCCC(c2cc(C)[nH]n2)C1 (centres undefined) ?
*A* 72.5
